target: E. coli DNA gyrase (Escherichia coli, UniProt P0AES4+P0AES6); construct: purchased John Innes Enterprises #K0001; assay: DNA gyrase inhibition (supercoiling kit), Exp. Ex. 2-2; assay type: biochemical; conditions: supercoiling activity, 37° C., 30 minutes; read-out: IC50 (E. coli DNA gyrase inhibitions)
endpoint: pIC50
Remember the convention: pIC50 equals -log10 of concentration in molar.

## Input What value of pIC50 has been reported for the following compound? O=C(OC[C@H]1O[C@@H](Oc2c(-c3ccc(O)c(O)c3)oc3cc(O)cc(O)c3c2=O)[C@H](OC(=O)c2ccc(F)cc2)[C@@H](O)[C@H]1O)c1ccc(F)cc1 [Compound 14c]
## Output 6.42

## Input Next entry: O=C(CCCc1ccc(F)cc1)OC[C@H]1O[C@@H](Oc2c(-c3ccc(O)c(O)c3)oc3cc(O)cc(O)c3c2=O)[C@H](OC(=O)CCCc2ccc(F)cc2)[C@@H](O)[C@H]1O [Compound 14j]
## Output 5.53

## Input Next entry: O=C(CCCCc1ccc(F)cc1)OC[C@H]1O[C@@H](Oc2c(-c3ccc(O)c(O)c3)oc3cc(O)cc(O)c3c2=O)[C@H](OC(=O)CCCCc2ccc(F)cc2)[C@@H](O)[C@H]1O [Compound 14k]
## Output 5.30

## Input Next entry: O=C(Cc1ccc(F)cc1)OC[C@H]1O[C@@H](Oc2c(-c3ccc(O)c(O)c3)oc3cc(O)cc(O)c3c2=O)[C@H](OC(=O)Cc2ccc(F)cc2)[C@@H](O)[C@H]1O [Compound 14e]
## Output 5.98

## Input Next entry: Cc1ccc(CCC(=O)OC[C@H]2O[C@@H](Oc3c(-c4ccc(O)c(O)c4)oc4cc(O)cc(O)c4c3=O)[C@H](OC(=O)CCc3ccc(C)cc3)[C@@H](O)[C@H]2O)cc1 [Compound 14h]
## Output 5.68

## Input Next entry: O=C(CCc1ccc(F)cc1)OC[C@H]1O[C@@H](Oc2c(-c3ccc(O)c(O)c3)oc3cc(O)cc(O)c3c2=O)[C@H](OC(=O)CCc2ccc(F)cc2)[C@@H](O)[C@H]1O [Compound 14m]
## Output 5.85

## Input Next entry: O=C(CCc1ccc(F)cc1)OC[C@H]1O[C@@H](Oc2c(-c3ccc(O)c(O)c3)oc3cc(O)cc(O)c3c2=O)[C@H](OC(=O)CCc2ccc(F)cc2)[C@@H](O)[C@H]1O [Compound 14i]
## Output 6.11

## Input Next entry: CCOc1ccc(CCC(=O)OC[C@H]2O[C@@H](Oc3c(-c4ccc(O)c(O)c4)oc4cc(O)cc(O)c4c3=O)[C@H](OC(=O)CCc3ccc(OCC)cc3)[C@@H](O)[C@H]2O)cc1 [Compound 14g]
## Output 5.27
